- methodNotes: yeast display, Sf9 membrane polyspecificity reagent, FACS + sequencing; frameworks hold sequencing errors
measureName: polyreactivity (PSR sort gate)

Recorded polyreactivity (PSR sort gate), per entry:
LVQLVESGGGLVQAGGSLRLSCAASGFIFGYYAMGWYRQAPGKERELVAASTRSGGSTRYADSVKGRFTISRDKAKNTVYLQMNSLKPEDSAVYYCAADSCPINLYEDYWGQGTQVTVSS | high polyreactivity
QVQLVESGGGLVQAGGSLRLSCAASGSIFNWYTMGWYRQAPGKERELVAVITQSGGSTYYADSVKGRFTISRDNAKNTVYLQMNSLKPEDTAVYYCAKRYWSYQYGYRMYYWGQGTQVTVSS | high polyreactivity
QVQLVESGGGLVQAGGSLRLSCAASGSIFSGNAMGWYRPAPGKERELVAAISSNGGRTYYADSVKGRFTISRDNAKNTVYLQMNSLKPEDTAVYYCAADYGKRRYGYYYWGQGTQVTVSS | high polyreactivity
QVQLVESGGGLVQAGGSLRLSCAASGSTFTGYAMGWYRQAPGKERELVAAISRSVGRTYYADSVKGRFTISRDNAKNTVYLQMNSLKPEETAVYYCAADVFLTGSRNYYWGQGTQVTVSS | high polyreactivity
QVQLVESRGGLVQAGGSLRLSCAASGFTLPANGMGWYRQAPGKERELVAAISFIAGSTYYADSVKGRFTISRDNEKNTVYFQMNSLKPEDTAVYYSATQFPPSSIYDYWGQGTQVTVSS | low polyreactivity

Input: # input sequence: QVQLVESGGGLVQAGGSLRLSCAASGSIFRPYAMGWYRQAPGKERELVAGITWGGSRTYYADSVKGRFTISRDNAKNTVYLQMNSLKPEDTAVYYCAAYPSTNGYIYYYWGQGSQVTVSS ; wanted: its polyreactivity (PSR sort gate)
Output: high polyreactivity

Input: # input sequence: QVQLVESGGGLVQAGGSLRLSCAASGLIFYNYAMGWYRQAPGKERELVAAISRSGGRTYYADSVKGRFTISRDNAKNTVYLQMNSLKPEDTAVYYCNAVHVSIEGYYWGQGTQVTVSS ; wanted: its polyreactivity (PSR sort gate)
Output: high polyreactivity

Input: # input sequence: QVQHEESGGGLVQAGGSLRLSCAASGFTFRGYAMGWYRQAPGKERELVAAISRSGGGTYYADSVKGRFTISRDNAKNTVYLQMNSLKPEDTAVYYCAAVYRRTRSWKFDYWGQGTQVTVSS ; wanted: its polyreactivity (PSR sort gate)
Output: high polyreactivity

Input: # input sequence: QVQLVESGGGLVQAGGSLRISCAASGSTFRYYAMGWYKQAPGKERELVAAITTSGGRTYYADSVKGRFTISRDNAKNTVYLQMNSLKPEDTAVYYCAIRYSTPYLTDNFLSGPGYYYWGQGSQVTVSS ; wanted: its polyreactivity (PSR sort gate)
Output: high polyreactivity

Input: # input sequence: QVQLVESAGGLVQAGGSLRLSCAASGSNFGDYPLGWYRQAPGKERELVAAISVRGGSTYYADSVKGRFTISRDNAKITVYLQMKSLKPEDTAVYYCNKDLYRYPGYDYWGHGTQVTVSS ; wanted: its polyreactivity (PSR sort gate)
Output: high polyreactivity

Input: # input sequence: QVQLVESGGGLVQAGGSHRLSCSASGRIFARNVMGWYRQAPGKERELVAAITYSGGRTYYADSVKGRFTISRDNAKNTVYLQMNSLKPEDTAVYYCNAKSFSPPGYRGFDYWGQGTQVTVSS ; wanted: its polyreactivity (PSR sort gate)
Output: low polyreactivity
